# system_under_test: recombinant human BAFF (human, UniProt Q9Y275 134-285)
# test_name: cell-based or functional assay
Exercise: state measured BAFF IC50 (ΔWT) for each of the binders provided.

Reported BAFF IC50 (ΔWT) of TACI 13-118, with K77E/F78Y/Y102D, Fc fusion (Fc fusion) SRVDQEERFPQGLWTGVAMRSCPEEQYWDPLLGTCMSCKTICNHQSQRTCAAFCRSLSCRKEQGEYYDHLLRDCISCASICGQHPKQCADFCENKLRSPVNLPPELEPKSSDKTHTCPPCPAPEAEGAPSVFLFPPKPKDTLMISRTPEVTCVVVDVSHEDPEVKFNWYVDGVEVHNAKTKPREEQYNSTYRVVSVLTVLHQDWLNGKEYKCKVSNKALPAPIEKTISKAKGQPREPQVYTLPPSRDELTKNQVSLTCLVKGFYPSDIAVEWESNGQPENNYKTTPPVLDSDGSFFLYSKLTVDKSRWQQGNVFSCSVMHEALHNHYTQKSLSLSPG : 1.07 fold of WT TACI (68-110)-Fc

Reported BAFF IC50 (ΔWT) of 26 TACI CRD2-Fc (Fc fusion) SLSCRKEQGEYYDHLLRDCISCASICGQHPKQCADFCENKLRSGSGGGGSEPKSSDKTHTCPPCPAPEAEGAPSVFLFPPKPKDTLMISRTPEVTCVVVDVSHEDPEVKFNWYVDGVEVHNAKTKPREEQYNSTYRVVSVLTVLHQDWLNGKEYKCKVSNKALPAPIEKTISKAKGQPREPQVYTLPPSRDELTKNQVSLTCLVKGFYPSDIAVEWESNGQPENNYKTTPPVLDSDGSFFLYSKLTVDKSRWQQGNVFSCSVMHEALHNHYTQKSLSLSPG : 0.84 fold of WT TACI (68-110)-Fc

Reported BAFF IC50 (ΔWT) of belimumab (antibody, V domains shown) VH: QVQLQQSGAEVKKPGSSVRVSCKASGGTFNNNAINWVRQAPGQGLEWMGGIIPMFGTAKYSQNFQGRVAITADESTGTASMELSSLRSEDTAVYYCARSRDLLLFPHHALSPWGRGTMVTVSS VL: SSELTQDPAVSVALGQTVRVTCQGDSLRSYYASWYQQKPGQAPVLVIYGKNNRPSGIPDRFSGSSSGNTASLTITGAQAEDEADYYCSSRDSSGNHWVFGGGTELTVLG : 1.18 fold of WT TACI (68-110)-Fc
